Recorded melting point values for a group of molecules are listed next.

Worked examples follow.
- Molecule: "CN1C(=O)C[C@H](c2ccccc2)[C@@H]1[C@H](O)C#Cc1ccccc1Cl (racemic) [Example 126]"
  melting point: "139 to 140 °C"
- Molecule: "COc1cccc(C(O)C2C(c3ccccc3)CC(=O)N2C)c1 (stereo not shown) [Example 97]"
  melting point: "160 to 161 °C"
- Molecule: "CN1C(=O)CC(c2ccccc2)C1C(O)c1ccc(CCc2ccc(F)cc2)s1 (stereo not shown) [Example 57]"
  melting point: "123 to 125 °C"

Q: Which melting point is listed for CN(C)c1ccc(C(O)C2C(c3ccccc3)CC(=O)N2C)cc1 (stereo not shown) [Example 101] ?
Result: 182 to 185 °C

* * *

Measured melting point, listed per entry for reference.

- Molecule: "CN1C(=O)CC(c2ccccc2)C1C(O)C#Cc1cccc(N)c1 (racemic)"
  melting point: "205 to 207 °C"
- Molecule: "COc1ccc(S(=O)(=O)c2ccc([C@@H](O)[C@H]3[C@@H](c4ccccc4)CC(=O)N3C)s2)cc1 (racemic)"
  melting point: "203 to 205 °C"
- Molecule: "CN1C(=O)C[C@H](c2ccccc2F)[C@@H]1[C@H](O)c1cccc(Cl)c1"
  melting point: "184 to 185 °C"

Q: Would you kindly share the measured melting point for CN1C(=O)CC(c2ccccc2)C1C(O)c1ccc(C=Cc2ccc(F)cc2)s1 (stereo not shown) ?
Result: 194 to 195 °C (dec.)

Q: Fill blank: measured melting point of the molecule CN1C(=O)C[C@H](c2ccccc2F)[C@@H]1[C@H](O)c1ccc(-c2cccs2)s1 is ____.
Result: 200 to 202 °C

Q: // lookup melting point for CN1C(=O)CC(c2ccccc2)C1C(O)c1ccc(-c2ccccn2)s1 (stereo not shown)
Result: 234 °C (dec.)

Q: Need melting point of CN1C(=O)C[C@H](c2ccccc2F)[C@@H]1[C@H](O)c1ccc(-c2ccccc2)s1 (racemic) , thanks.
Result: 219 to 220 °C (dec.)

* * *

Listed here are compounds together with their documented melting point.

- Compound: "CN1C(=O)CC(c2ccccc2)C1C(O)c1cc2ccccc2s1 (stereo not shown)"
  melting point: "195 °C (dec.)"
- Compound: "COc1ccc(-c2ccc(C(O)C3C(c4ccccc4)CC(=O)N3C)s2)cc1 (stereo not shown)"
  melting point: "168 to 170 °C"
- Compound: "Cc1ccc(C)n1-c1cccc(C#C[C@@H](O)[C@H]2[C@@H](c3ccccc3)CC(=O)N2C)c1 (racemic)"
  melting point: "175 to 176 °C"

Q: Find the recorded melting point belonging to Cc1ccc([C@@H](O)[C@H]2[C@@H](c3ccccc3)CC(=O)N2C)s1 (relative stereo) and report it.
Result: 185 to 188 °C

* * *

Readout type: melting point

Example results:
- Compound: "CN1C(=O)CC(c2ccccc2)C1C(O)c1cccc(C(F)(F)F)c1 (stereo not drawn) [Example 96]"
  Observed measurement: "155 to 158 °C"
- Compound: "CN1C(=O)C[C@H](c2ccccc2)[C@@H]1[C@H](O)c1cccc2ccccc12 (racemic) [Example 94]"
  Observed measurement: "255 to 256 °C"

Okay, now this compound:
Q: // melting point lookup, key: Cc1sc([C@@H](O)[C@H]2[C@@H](c3ccccc3)CC(=O)N2C)cc1-c1ccccc1 (racemic) [Example 38]
Result: 78 to 82 °C
